Test target: Parkinson disease protein 7 (Homo sapiens) (UniProt Q99497)
Sequence (whole entry): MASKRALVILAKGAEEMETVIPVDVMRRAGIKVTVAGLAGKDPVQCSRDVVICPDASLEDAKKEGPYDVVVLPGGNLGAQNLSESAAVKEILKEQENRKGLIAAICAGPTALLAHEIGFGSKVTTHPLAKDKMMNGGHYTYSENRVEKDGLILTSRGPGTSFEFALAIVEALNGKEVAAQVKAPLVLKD
Test summary: Binding affinity to PARK7 in human A549 cells assessed as band shift at 5 uM incubated for 24 hrs by SDS-PAGE based fluorescence scanning immunoblotting analysis
Assay type: cell-based
Calls of active or inactive are those of the source. The calls are words filed in the database; no cut-off is given here.
Outcome codes: active, inactive

[[record]]
compound_structure = "CC[N+]1=C(/C=C/C=C/C=C2/N(CCCCCC(=O)NCCCc3cn(CC(=O)N4CCN(S(=O)(=O)c5cccc(C(=O)N6CCc7nc(NC(=O)[C@@H]8CCN(C#N)C8)sc7C6)c5)CC4)nn3)c3ccc(S(=O)(=O)[O-])cc3C2(C)C)C(C)(C)c2cc(S(=O)(=O)O)ccc21"
cat = "active"

[[record]]
compound_structure = "CC1=CC(C)=[N+]2C1=C(CCCCc1cn(-c3ccc(F)c(C(=O)N4CCc5nc(NC(=O)[C@@H]6CCN(C#N)C6)sc5C4)c3)nn1)c1c(C)cc(C)n1[B-]2(F)F"
cat = "active"

[[record]]
compound_structure = "CC1=CC(C)=[N+]2C1=C(CCCCc1cn(CC(=O)N3CCN(S(=O)(=O)c4cccc(C(=O)N5CCc6nc(NC(=O)[C@@H]7CCN(C#N)C7)sc6C5)c4)CC3)nn1)c1c(C)cc(C)n1[B-]2(F)F"
cat = "inactive"

[[record]]
compound_structure = "CC[N+]1=C(/C=C/C=C/C=C2/N(CCCCCC(=O)NCCCc3cn(-c4ccc(F)c(C(=O)N5CCc6nc(NC(=O)[C@@H]7CCN(C#N)C7)sc6C5)c4)nn3)c3ccc(S(=O)(=O)O)cc3C2(C)C)C(C)(C)c2cc(S(=O)(=O)[O-])ccc21"
cat = "active"


# credit: ChEMBL document CHEMBL5506034
